# Assayed target: RgpB (Porphyromonas gingivalis)
# Construct: 0.02 nM RgpB, isolated from culture of Porphyromonas gingivalis; endogenous in cells
# Sequence (P95493 230-664): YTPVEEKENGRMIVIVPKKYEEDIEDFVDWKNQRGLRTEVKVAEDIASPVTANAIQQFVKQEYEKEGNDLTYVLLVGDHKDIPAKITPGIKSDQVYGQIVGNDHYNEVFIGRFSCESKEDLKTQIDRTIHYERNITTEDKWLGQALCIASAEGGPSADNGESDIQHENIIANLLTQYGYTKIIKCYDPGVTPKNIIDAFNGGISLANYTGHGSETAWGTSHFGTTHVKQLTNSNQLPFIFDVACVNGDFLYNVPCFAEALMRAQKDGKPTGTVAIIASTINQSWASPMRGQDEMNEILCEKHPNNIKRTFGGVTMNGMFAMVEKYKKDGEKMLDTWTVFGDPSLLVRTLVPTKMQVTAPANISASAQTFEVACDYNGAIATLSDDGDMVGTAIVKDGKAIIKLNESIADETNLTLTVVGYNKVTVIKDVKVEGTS
# Assay notes: RgpB inhibition, fluorogenic assay
# Assay type: biochemical
# Protocol conditions: Activity (RgpB IC50), 0.02 nM RgpB, 10 μM Boc-Phe-Ser-Arg-MCA, 90 minutes, 37° C., pH=7.5
# Protocol: The capacities of compounds of the present invention to inhibit the activity of RgpB were measured in a fluorogenic assay similar to those described in Barret Biochemical Journal. 1980, 187(3), 909. The specific assay conditions were as follows. Buffer: pH=7.5, 100 mM Tris-HCl, 75 mM NaCl, 2.5 mM CaCl2, 10 mM cysteine, 1% DMSO after all additions. […]
In this section, each of the compounds is paired with its reported IC50.

Solved entries (count: 5):
>>> df
                                   compound  reported_property             reading
0                     CN(C#N)CCOc1ccnc(N)c1               IC50      100 to 1000 nM
1              N#CN(CCOc1ccnc(N)c1)C1CCCCC1               IC50  10000 to 100000 nM
2  Nc1ccc(C[C@H](NC(=O)C2CCCC2)C(=O)COc2c(F)c(F)cc(F)c2F)cn1               IC50            < 100 nM
3  N#CN1CCC(COc2ccnc(N)c2)C1 (stereo not drawn)               IC50    1000 to 10000 nM
4             N#CN1CCC[C@H]1COc1ccnc(N)c1Cl               IC50  10000 to 100000 nM

Reported IC50, compound Nc1ccc(CC(NC(=O)C2CCCC2)C(=O)COc2ccon2)cn1 (stereo not drawn) : ____
< 100 nM

Record: CN(C)c1cc(OCC2CCCN2C#N)ccn1 (stereo not drawn)
10000 to 100000 nM

Record: CN(C#N)Cc1ccc2c(N)nccc2c1
100 to 1000 nM

Record: CNc1cc(OCC2CCCN2C#N)ccn1 (stereo not drawn)
100 to 1000 nM

Record: CC(C)N(C#N)CCCc1ccnc(N)c1
10000 to 100000 nM

Record: N#CN1CCC[C@@H]1COc1ccnc(N)c1
1000 to 10000 nM

Record: N#CN1CCC[C@H]1CSc1ccnc(N)c1
1000 to 10000 nM

Record: CC(COc1ccnc(N)c1)N(C)C#N (stereo not drawn)
100 to 1000 nM

Record: N#CN1CCCC1COc1ccnc(N)c1 (stereo not drawn)
100 to 1000 nM

Record: N#CN1CCCC1c1ccc2c(N)nccc2c1 (stereo not drawn)
< 100 nM

Record: N#CN1CCCC1CCCOc1ccnc(N)c1 (stereo not drawn)
10000 to 100000 nM

Record: N#CN1CCC(Oc2ccnc(N)c2)C1 (stereo not drawn)
100 to 1000 nM

Record: Nc1cc(CC(NC(=O)C2CCCC2)C(=O)COc2c(F)cccc2F)ccn1 (stereo not drawn)
< 100 nM

Record: COC(C)(C)C(=O)NC(Cc1ccc(N)nc1)C(=O)COc1c(F)ccc(F)c1F (stereo not drawn) [Compound 62]
100 to 1000 nM

Record: CC(C)N(C#N)CCc1ccnc(N)c1
10000 to 100000 nM

Record: COC(C)(C)C(=O)NC(Cc1ccnc(N)c1)C(=O)COc1c(F)ccc(F)c1F (stereo not drawn)
100 to 1000 nM

Record: N#CN1CC(Oc2ccnc(N)c2)C1
> 100000 nM

FYI, the data here is from patent US11059786B2.
